All values here come from patent US20050075371A1.

# measurementDescription: Systemic half-life after oral or intravenous administration in dogs
# Assay type: in vivo, dogs (beagle)
# testParameters: beagle, dog, blood, po, oral solution, systemic half-life of the proton pump inhibitor, unit inferred, read-out: Dog T1/2 PPI (converted)
measuredAttribute: half-life (min)
Give just the number in min; leave the unit off.

Check out these entries, answers already filled in.
{"columns": ["compound", "half-life / min"],
 "data": [
  ["COc1ccc2[nH]c([S+]([O-])Cc3ncc(C)c(OC)c3C)nc2c1 (stereo not shown) [Omeprazole, reference compound]", 41.8],
  ["COCCCOc1ccnc(C[S+]([O-])c2nc3ccccc3[nH]2)c1C (stereo not shown) [Rabeprazole, reference compound]", 22.1]
]}

Cc1c(OCC(F)(F)F)ccnc1C[S+]([O-])c1nc2ccccc2[nH]1 (stereo not shown) [Lansoprazole, reference compound] has a reported half-life of 34.4

Record COc1ccnc(C[S+]([O-])c2nc3ccc(OC(F)F)cc3[nH]2)c1OC (stereo not shown) [Pantoprazole, reference compound] . Reported half-life: 44.6

* * *

# measurementDescription: Systemic half-life after oral or intravenous administration in dogs
# Type: in vivo, dogs (beagle)
# testParameters: beagle, dog, blood, iv, 1 mg/kg, intravenous, equivalent omeprazole dose 1 mg/kg, read-out: Systemic omeprazole half-life (converted)
# Experimental: Blood concentrations of the compounds omeprazole, lansoprazole, pantoprazole, rabeprazole, and test compounds were quantified using an achiral liquid chromatography tandem mass spectrometry method (LC-MS/MS). Systemic pharmacokinetic parameters were determined for omeprazole or lansoprazole using non-compartmental analysis in Watson® version 6.3, available from InnaPhase Corporation, Philadelphia, Pa.
measuredAttribute: half-life
Reply with the number and its unit after it.

Recorded result, COc1ccc2[nH]c([S+]([O-])Cc3ncc(C)c(OC)c3C)nc2c1 (stereo not shown) [Omeprazole, reference compound] , half-life: 36 min

* * *

# measurementDescription: Systemic half-life after oral or intravenous administration in dogs
# Type: in vivo, dogs (beagle)
# testParameters: oral solution, systemic half-life of the proton pump inhibitor, unit inferred
# Experimental: Blood concentrations of the compounds omeprazole, lansoprazole, pantoprazole, rabeprazole, and test compounds were quantified using an achiral liquid chromatography tandem mass spectrometry method (LC-MS/MS). Systemic pharmacokinetic parameters were determined for omeprazole or lansoprazole using non-compartmental analysis in Watson® version 6.3, available from InnaPhase Corporation, Philadelphia, Pa.
measuredAttribute: Dog T1/2 PPI (h)
Write the value in h as a bare number.

{"columns": ["compound", "recordedNumber"],
 "data": [
  ["COc1ccc2c(c1)nc([S+]([O-])Cc1ncc(C)c(OC)c1C)n2S(=O)(=O)c1ccc(OCC(C)(C)C(=O)O)cc1 (stereo not drawn)", 0.813],
  ["Cc1c(OCC(F)(F)F)ccnc1C[S+]([O-])c1nc2ccccc2n1S(=O)(=O)c1ccc(CC(=O)O)c(CC(=O)O)c1 (stereo not drawn)", 0.931],
  ["COCCCOc1ccnc(C[S+]([O-])c2nc3ccccc3n2S(=O)(=O)c2c(C)cc(OCC(=O)O)cc2C)c1C (stereo not drawn)", 1.52],
  ["COC(=O)COc1ccc(S(=O)(=O)n2c([S+]([O-])Cc3ncc(C)c(OC)c3C)nc3cc(OC)ccc32)cc1 (stereo not drawn)", 2.7]
]}

Dog T1/2 PPI recorded for this compound, COc1ccc2c(c1)nc([S+]([O-])Cc1ncc(C)c(OC)c1C)n2S(=O)(=O)c1ccc(OCC(=O)O)c(OCC(=O)O)c1 (stereo not drawn) , is 1.37

Entry under test: COc1ccc2c(c1)nc([S+]([O-])Cc1ncc(C)c(OC)c1C)n2S(=O)(=O)c1ccc(OCC(=O)O)c(C(=O)O)c1 (stereo not drawn) . Its Dog T1/2 PPI was 1.22

* * *

# measurementDescription: Systemic half-life after oral or intravenous administration in rats
# Type: in vivo, rats (Sprague-Dawley)
# testParameters: rats; oral solution; half-life of intact prodrug; NC = plasma concentration of prodrug too low to calculate half-life, or undetected; unit inferred
measuredAttribute: Rat T1/2 Prodrug (min)
Please reply with the bare figure in min and do not write the unit itself.

Reported Rat T1/2 Prodrug for COc1ccc2c(c1)nc([S+]([O-])Cc1ncc(C)c(OC)c1C)n2S(=O)(=O)c1c(C)cc(OCC(C)(C)C(=O)O)cc1C (stereo not shown) was 20.5

* * *

# measurementDescription: Systemic half-life after oral or intravenous administration in dogs
# Assay type: in vivo, dogs (beagle)
# testParameters: oral, Table 2D
Listing of entries alongside the reported t1/2 (systemic half-life in dogs after oral administration).
All answers are understood in h, so give the number only.

{"columns": ["molecule", "recordedNumber"],
 "data": [
  ["Cc1c(OCC(F)(F)F)ccnc1C[S+]([O-])c1nc2ccccc2n1S(=O)(=O)c1ccc(CC(=O)O)cc1 (stereo not drawn) [Compound 9]", 0.89]
]}

Field t1/2 (systemic half-life in dogs after oral administration) (entry COc1ccc2c(c1)nc([S+]([O-])Cc1ncc(C)c(OC)c1C)n2S(=O)(=O)c1ccc(OCC(C)(C)C(=O)O)cc1 (stereo not drawn) [Compound 3] ) reads 0.81

* * *

# measurementDescription: Systemic half-life after oral or intravenous administration in dogs
# Type: in vivo, dogs (beagle)
# testParameters: oral solution, systemic half-life of the proton pump inhibitor, unit inferred
measuredAttribute: Dog T1/2 PPI (min)
Write the value in min as a bare number.

{"columns": ["molecule", "recordedNumber"],
 "data": [
  ["COCCCOc1ccnc(C[S+]([O-])c2nc3ccccc3n2S(=O)(=O)c2cc(C(=O)O)ccc2C)c1C (centres unmarked) [Compound 31]", 51.3],
  ["Cc1c(OCC(F)(F)F)ccnc1C[S+]([O-])c1nc2ccccc2n1S(=O)(=O)c1cccc(C(=O)O)c1 (centres unmarked) [Compound 7]", 53.6],
  ["COc1ccnc(C[S+]([O-])c2nc3cc(OC(F)F)ccc3n2S(=O)(=O)c2cc(C(=O)O)ccc2C)c1OC (centres unmarked) [Compound 29]", 57.5]
]}

Measured Dog T1/2 PPI of Cc1ccc(S(=O)(=O)n2c([S+]([O-])Cc3nccc(OCC(F)(F)F)c3C)nc3ccccc32)cc1CCC(=O)O (centres unmarked) [Compound 19] : 29

Entry Cc1c(OCC(F)(F)F)ccnc1C[S+]([O-])c1nc2ccccc2n1S(=O)(=O)c1ccc(C(=O)O)c(OCC(=O)O)c1 (centres unmarked) [Compound 16] , Dog T1/2 PPI reported as 60

* * *

# measurementDescription: Systemic half-life after oral or intravenous administration in dogs
# Type: in vivo, dogs (beagle)
# testParameters: oral solution, systemic half-life of the proton pump inhibitor, unit inferred
Catalogue of Dog T1/2 PPI readings, one per entry.
// note: answer is a bare numeric in min

Below: 5 molecules and their reported Dog T1/2 PPI.
{"columns": ["molecule", "unitAnnotation", "Dog T1/2 PPI"],
 "data": [
  ["Cc1c(OCC(F)(F)F)ccnc1C[S+]([O-])c1nc2ccccc2n1S(=O)(=O)c1ccc(OCC(C)(C)C(=O)O)cc1 (stereo not shown)", "min", 52.4],
  ["COCCCOc1ccnc(C[S+]([O-])c2nc3ccccc3n2S(=O)(=O)c2cccc(C(=O)O)c2)c1C (stereo not shown)", "min", 29.5],
  ["COc1ccc(C(=O)O)cc1S(=O)(=O)n1c([S+]([O-])Cc2nccc(OCC(F)(F)F)c2C)nc2ccccc21 (stereo not shown)", "min", 83.4],
  ["Cc1ccc(C(=O)O)cc1S(=O)(=O)n1c([S+]([O-])Cc2nccc(OCC(F)(F)F)c2C)nc2ccccc21 (stereo not shown)", "min", 106],
  ["COc1ccc2c(c1)nc([S+]([O-])Cc1ncc(C)c(OC)c1C)n2S(=O)(=O)c1c(C)cc(OCC(C)(C)C(=O)O)cc1C (stereo not shown)", "min", 50.2]
]}

Record COc1ccc2c(c1)nc([S+]([O-])Cc1ncc(C)c(OC)c1C)n2S(=O)(=O)c1ccc(CC(=O)O)cc1 (stereo not shown) . Reported Dog T1/2 PPI: 61.8

Briefly, Dog T1/2 PPI measured for COCCCOc1ccnc(C[S+]([O-])c2nc3ccccc3n2S(=O)(=O)c2ccc(C(=O)O)cc2)c1C (stereo not shown) : 53.6

* * *

# Tested on: Caco-2 cells
# measurementDescription: Membrane permeability (Papp) across Caco-2 cell monolayer, apical to basolateral
# Assay type: in vitro ADME
# testParameters: Caco-2, apical to basolateral, 10 μM, 37° C.
# Protocol: Determination of membrane permeability in all examples described herein was accomplished by the following procedure. […] Transport across Caco-2 cell monolayer was measured at 37° C., in the apical to basolateral direction (n=3). […] The transport rate J, is calculated as the slope of the linear regression fit for the transport amount over time data using Microsoft Excel® 97 SR-2 (Microsoft Corp. Redmond, Wash.). […]
measuredAttribute: Permeability (×10⁻⁶ cm/s)
Form entry: value (×10⁻⁶ cm/s) — number only.

Worked cases, Permeability given:
{"columns": ["molecule", "measuredAttribute", "unitAnnotation", "recordedNumber"],
 "data": [
  ["COc1ccc(S(=O)(=O)n2c([S+]([O-])Cc3nccc(OCC(F)(F)F)c3C)nc3ccccc32)cc1C(=O)O (centres unmarked)", "Permeability", "×10⁻⁶ cm/s", 0.23],
  ["COc1ccc2c(c1)nc([S+]([O-])Cc1ncc(C)c(OC)c1C)n2S(=O)(=O)c1ccc(CC(=O)O)cc1 (centres unmarked)", "Permeability", "×10⁻⁶ cm/s", 0.17],
  ["Cc1c(OCC(F)(F)F)ccnc1C[S+]([O-])c1nc2ccccc2n1S(=O)(=O)c1ccc(CC(=O)O)cc1 (centres unmarked)", "Permeability", "×10⁻⁶ cm/s", 0.34],
  ["COc1ccc2c(c1)nc([S+]([O-])Cc1ncc(C)c(OC)c1C)n2S(=O)(=O)c1c(C)cc(OCC(C)(C)C(=O)O)cc1C (centres unmarked)", "Permeability", "×10⁻⁶ cm/s", 0.52]
]}

From here, focus on the item given below.
molecule COc1ccc2c(c1)nc([S+]([O-])Cc1ncc(C)c(OC)c1C)n2S(=O)(=O)c1cccc(C(=O)O)c1 (centres unmarked) , Permeability observed: 0.067
